B1: Osa-1-4 twister ribozyme (parent)
chain: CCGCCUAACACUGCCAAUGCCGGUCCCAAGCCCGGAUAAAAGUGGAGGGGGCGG

- Variants of: B1
- assay-overview: self-cleavage, relative activity (ratio to wild type); higher = more cleavage; co-transcriptional
Criterion: self-cleavage meeting or surpassing 0.06. Met: label 1. Not met: label 0.

Illustrative cases are given below, each with its answer.
{"columns": ["sequence-text", "category-label"],
 "data": [
  ["CCGCCUAACACUGCCAAUGCCUGUCCCAUGCCCGGAUAAAAGUGGAGGGGGCGG [A29U G22U]", "label 1"],
  ["CCGCCUAACACAGCCAAUGCCGGUCCCAAGCCCGGAUAAAAGUGGAGGGGGCGG [U12A]", "label 1"],
  ["CCGCCUAACACUGCCAAUGCCGGCCCCAAGCCCGGAUAAAAGUGGAGGGGGUGG [C52U U24C]", "label 1"],
  ["CCGCCUAACACUGCCAAUGACGGUCCCGAGCCCGGAUAAAAGUGGAGGGGGCGG [A28G C20A]", "label 1"]
]}

## Task Can CCGCCUAACACUGCCAAUGCCGCUCCCAAGCUCGGAUAAAAGUGGAGGGGGCGG [C32U G23C] be said to have self-cleavage at or above 0.06?
## Result label 0

## Task Can CCGCCUAACACUGCCAAUGCCCGUCCCAAGCCCGGAUCAAAGUGGAGGGGGCGG [A38C G22C] be said to have self-cleavage at or above 0.06?
## Result label 1
